Reference source for all entries: patent US20120035251A1

tested on: TNF-α production in human whole blood; test: LPS-stimulation of human whole blood, TNF-α by ELISA; type: cell-based; conditions: Homo sapiens; read-out: Inhibition of TNF-α production in human whole blood (IC50)
reported endpoint: IC50 (nM)

CC(C)C[C@H](NCc1ccc(Cc2cc(C(N)=O)c(NC(N)=O)s2)cc1)C(=O)OC1CCCC1 [Example 1] :: 497

* * *

Target: IKKβ (Homo sapiens, UniProt O14920)
Construct: purchased Invitrogen (Paisley, UK)
Sequence (O14920 whole entry): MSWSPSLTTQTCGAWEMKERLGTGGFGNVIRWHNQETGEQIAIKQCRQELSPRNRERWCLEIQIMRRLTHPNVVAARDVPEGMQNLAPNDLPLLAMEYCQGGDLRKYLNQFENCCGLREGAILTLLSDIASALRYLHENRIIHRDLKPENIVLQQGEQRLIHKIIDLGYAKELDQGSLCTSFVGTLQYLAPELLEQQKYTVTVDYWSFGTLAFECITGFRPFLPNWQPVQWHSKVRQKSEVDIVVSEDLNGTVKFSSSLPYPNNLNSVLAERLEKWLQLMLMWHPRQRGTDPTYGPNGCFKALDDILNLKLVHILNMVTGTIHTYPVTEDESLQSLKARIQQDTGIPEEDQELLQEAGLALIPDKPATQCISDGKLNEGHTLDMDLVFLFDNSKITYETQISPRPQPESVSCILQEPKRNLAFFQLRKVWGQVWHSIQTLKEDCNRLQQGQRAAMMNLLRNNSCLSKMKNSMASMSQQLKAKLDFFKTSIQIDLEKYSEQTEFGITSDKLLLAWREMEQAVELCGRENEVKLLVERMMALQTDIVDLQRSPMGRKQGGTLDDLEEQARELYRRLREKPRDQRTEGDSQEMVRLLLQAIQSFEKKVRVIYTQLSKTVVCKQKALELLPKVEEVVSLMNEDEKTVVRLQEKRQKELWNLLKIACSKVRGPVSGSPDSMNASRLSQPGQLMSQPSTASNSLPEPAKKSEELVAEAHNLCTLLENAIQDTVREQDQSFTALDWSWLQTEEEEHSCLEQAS
Test: IKKβ enzyme assay (Z'-LYTE, Invitrogen)
Assay type: biochemical
Details: compound as drawn (Ester for the Example 1 row); read-out: Inhibition of IKKβ (IC50 nM)
Method: The ability of compounds to inhibit IKKβ kinase activity was measured in an assay performed by Invitrogen (Paisley, UK). The Z′-LYTE™ biochemical assay employs a fluorescence-based, coupled-enzyme format and is based on the differential sensitivity of phosphorylated and non-phosphorylated peptides to proteolytic cleavage. […] Duplicate data points are generated from a 1/3 log dilution series of a stock solution of test compound in DMSO. […] Data is collected and analysed using XLfit software from IDBS. […]
List of IC50 values.
reported endpoint: IC50 (nM)

CC(C)C[C@H](NCc1ccc(Cc2cc(C(N)=O)c(NC(N)=O)s2)cc1)C(=O)OC1CCCC1 [Example 1] :: 10000
NC(=O)Nc1sc(Cc2ccccc2)cc1C(N)=O [reference compound] :: 486

* * *

system: TNF-α production in THP-1 cells; test: LPS-stimulation of THP-1 cells, TNF-α by ELISA; format: cell-based; conditions: Homo sapiens; LPS-stimulated THP-1 cells, TNF-α; read-out: IC50 (nM) THP-1
reported endpoint: IC50

CC(C)C[C@H](NCc1ccc(CCc2cc(C(N)=O)c(NC(N)=O)s2)cc1)C(=O)OC1CCCC1 :: > 5000 nM
CC(C)C[C@H](NCc1ccc(C#Cc2cc(C(N)=O)c(NC(N)=O)s2)cc1)C(=O)OC1CCCC1 :: 500 to 5000 nM
CC(C)C[C@H](NCc1ccc(Cc2cc(C(N)=O)c(NC(N)=O)s2)cc1)C(=O)OC(C)(C)C :: > 5000 nM
CC(C)C[C@H](NCc1ccc(Cc2cc(C(N)=O)c(NC(N)=O)s2)cc1)C(=O)OC1CCCC1 :: 500 to 5000 nM

* * *

biological target: IKKβ (Homo sapiens, UniProt O14920); construct: purchased Invitrogen (Paisley, UK); assay: IKKβ enzyme assay (Z'-LYTE, Invitrogen); type: biochemical; settings: read-out: IC50 (nM) IKKβ Enzyme
List of IC50 values.
reported endpoint: IC50

CC(C)C[C@H](NCc1ccc(CCc2cc(C(N)=O)c(NC(N)=O)s2)cc1)C(=O)O [Example 6] :: 500 to 5000 nM
CC(C)C[C@H](NCc1ccc(Cc2cc(C(N)=O)c(NC(N)=O)s2)cc1)C(=O)OC(C)(C)C [Example 2] :: 500 to 5000 nM
CC(C)C[C@H](NCc1ccc(C#Cc2cc(C(N)=O)c(NC(N)=O)s2)cc1)C(=O)OC1CCCC1 [Example 4] :: > 5000 nM
CC(C)C[C@H](NCc1ccc(Cc2cc(C(N)=O)c(NC(N)=O)s2)cc1)C(=O)O [Example 5] :: < 500 nM
CC(C)C[C@H](NCc1ccc(Cc2cc(C(N)=O)c(NC(N)=O)s2)cc1)C(=O)OC1CCCC1 [Example 1] :: > 5000 nM
CC(C)C[C@H](NCc1ccc(CCc2cc(C(N)=O)c(NC(N)=O)s2)cc1)C(=O)OC1CCCC1 [Example 3] :: > 5000 nM
